Can you tell me pKi for the items I'm about to list?
# subject.of.test: human NK3 receptor (Homo sapiens, UniProt P29371)
# Sequence (P29371 whole entry): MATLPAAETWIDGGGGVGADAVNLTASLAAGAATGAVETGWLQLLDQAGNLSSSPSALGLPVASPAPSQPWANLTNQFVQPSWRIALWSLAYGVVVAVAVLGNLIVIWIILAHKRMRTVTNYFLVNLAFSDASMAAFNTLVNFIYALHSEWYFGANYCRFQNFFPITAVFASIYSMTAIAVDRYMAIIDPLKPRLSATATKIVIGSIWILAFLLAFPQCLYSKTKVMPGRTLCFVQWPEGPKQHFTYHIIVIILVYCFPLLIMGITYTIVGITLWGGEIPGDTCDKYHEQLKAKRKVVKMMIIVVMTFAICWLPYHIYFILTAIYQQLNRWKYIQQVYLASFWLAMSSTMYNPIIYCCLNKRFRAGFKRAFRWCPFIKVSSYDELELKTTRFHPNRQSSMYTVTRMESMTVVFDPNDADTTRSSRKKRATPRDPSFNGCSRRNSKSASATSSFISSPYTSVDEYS
# protocol.text: [3H]SR142801 competition binding assay
# condition.set: hNK3 receptor binding, [3H]SR142801, membranes from HEK293 cells transiently expressing recombinant human NK3 receptor
Give bare numbers, as −log10 of the molar value.

[
  {
    "molecule": "CN(Cc1ccc(C(F)(F)F)c(F)c1)[C@H]1CN(C(=O)N2CCN(c3ccccn3)CC2)C[C@@H]1c1ccc(Cl)c(Cl)c1 (racemic)",
    "observed": 8.39
  },
  {
    "molecule": "CN(Cc1ccc(C(F)(F)F)c(F)c1)[C@H]1CN(C(=O)CN2C[C@@H]3C[C@@H]2CO3)C[C@@H]1c1ccc(Cl)c(Cl)c1 (mixture of isomers)",
    "observed": 7.60
  },
  {
    "molecule": "CN1CCN(CC(=O)N2C[C@H](c3ccc(Cl)c(Cl)c3)[C@@H](N(C)Cc3ccc(C(F)(F)F)c(F)c3)C2)CC1 (racemic)",
    "observed": 7.40
  },
  {
    "molecule": "CN(Cc1ccc(C(F)(F)F)c(F)c1)[C@H]1CN(C(=O)CCCCC(=O)c2ccccn2)C[C@@H]1c1ccc(Cl)c(Cl)c1 (racemic)",
    "observed": 7.61
  },
  {
    "molecule": "CN(C)CCCN1CCN(C(=O)N2C[C@H](c3ccc(Cl)c(Cl)c3)[C@@H](N(C)Cc3ccc(C(F)(F)F)c(F)c3)C2)CC1 (racemic)",
    "observed": 8.27
  }
]

Name the reported pKi value associated with the molecule "CN(Cc1ccc(C(F)(F)F)c(F)c1)[C@H]1CN(C(=O)CCN2CCOCC2)C[C@@H]1c1ccc(Cl)c(Cl)c1"
7.57

---

Can you tell me pKi for the items I'm about to list?
# subject.of.test: human NK3 receptor (Homo sapiens)
# protocol.text: [3H]SR142801 competition binding assay
# condition.set: hNK3 receptor binding, [3H]SR142801, membranes from HEK293 cells transiently expressing recombinant human NK3 receptor
Answers are plain numbers, as −log10 of the molar value.

Below, each entry is followed by its recorded pKi result.
[
  {
    "compound": "CC(=O)N[C@@H]1CCN(CC(=O)N2C[C@H](c3ccc(Cl)c(Cl)c3)[C@@H](N(C)Cc3ccc(C(F)(F)F)c(F)c3)C2)C1 (mixture of isomers) [Example 134]",
    "pKi": 7.36
  },
  {
    "compound": "CN(Cc1ccc(C(F)(F)F)c(F)c1)[C@H]1CN(C(=O)CCCCN2CCOCC2)C[C@@H]1c1ccc(Cl)c(Cl)c1 (racemic) [Example 62]",
    "pKi": 7.96
  }
]

Kindly consider the entry below.
Form field: pKi recorded for CN(Cc1ccc(C(F)(F)F)c(F)c1)[C@H]1CN(C(=O)CNCCC#N)C[C@@H]1c1ccc(Cl)c(Cl)c1 (racemic) [Example 127] with human NK3 receptor (Homo sapiens) (enter value)
7.00

---

# subject.of.test: human NK3 receptor (Homo sapiens)
# protocol.text: [3H]SR142801 competition binding assay
# condition.set: hNK3 receptor binding, [3H]SR142801, membranes from HEK293 cells transiently expressing recombinant human NK3 receptor
assay.endpoint: pKi
Numbers only, as −log10 of the molar value.

[
  {
    "compound": "CC(=O)N[C@H]1CCN(CC(=O)N2C[C@H](c3ccc(Cl)c(Cl)c3)[C@@H](N(C)Cc3ccc(C(F)(F)F)c(F)c3)C2)C1 (mixture of isomers) [Example 133]",
    "observed": 7.63
  },
  {
    "compound": "CN(Cc1ccc(C#N)cc1)[C@H]1CN(C(=O)N2CCN(S(C)(=O)=O)CC2)C[C@@H]1c1ccc(Cl)c(Cl)c1 (racemic) [Example 34]",
    "observed": 7.49
  }
]

Name the reported pKi value associated with the compound CN1CCN(CCCCC(=O)N2C[C@H](c3ccc(Cl)c(Cl)c3)[C@@H](N(C)Cc3ccc(C(F)(F)F)c(F)c3)C2)CC1 (racemic) [Example 89]
7.57
